The following molecules are shown together with reported pIC50 values.
experimental.target: BRD4 (Homo sapiens, UniProt O60885)
experimental.details: Time Resolved Fluorescence Resonance Energy Transfer (TR-FRET) binding assay, BRD4
measurement.parameters: one of the FRET assays described; read-out: FRET BRD4 IC50
pIC50: −log10 of the molar value.

// query Param item = Cc1nnn(C)c1-c1cnc2c3ccc(C(C)(C)O)cc3n(C(CCC(F)(F)F)c3ccccn3)c2c1 (single isomer, unassigned) [Example 254] ; retrieve measured pIC50.
// result > 8.30

// query How about this molecule: [2H]C([2H])([2H])c1nnn(C)c1-c1cnc2c3c(F)cc(S(C)(=O)=O)cc3n([C@H](c3ccccc3F)C3CCOCC3)c2c1 [Example 196]
// result > 7.60

// query How about this molecule: Cc1nnn(C)c1-c1cnc2c3ccc(C(C)(C)O)cc3n(C(c3ncccc3Cl)C3CCOCC3)c2c1 (single isomer, unassigned) [Example 303]
// result > 8.30

// query How about this molecule: COc1ccc(C(C2CCOCC2)n2c3cc(C(C)(C)O)ccc3c3ncc(-c4c(C)nnn4C)cc32)c(F)c1 (single isomer, unassigned) [Example 119]
// result > 8.30
